# residual activity values compiled below
# target-of-assay: Insulin receptor (Homo sapiens)
# test: Residual activity of human IR at 1 uM relative to control
Expressed in %, but write only the number.

Consider the worked cases shown below.
{"molecule": "O=C1NC(=O)C2=C1c1cn(c3ccccc13)CCCc1ccc(c(N3CCCC3)n1)CCCn1cc2c2ccccc21", "reading": 87}
{"molecule": "CN(C)c1cc2cc(n1)CCCn1cc(c3ccccc31)C1=C(C(=O)NC1=O)c1cn(c3ccccc13)CCC2", "reading": 102}
{"molecule": "CN(C)c1nc2ccc1CCCn1cc(c3ccccc31)C1=C(C(=O)NC1=O)c1cn(c3ccccc13)CC2", "reading": 91}

Endpoint output: residual activity of `O=C1NC(=O)C2=C1c1cn(c3ccccc13)CCCc1cc(nc(N3CCCC3)c1)CCCn1cc2c2ccccc21` . Value?
110

###

# target-of-assay: 3-phosphoinositide-dependent protein kinase 1 (Homo sapiens)
# test: Inhibition of human PDK1 at 1 uM relative to control; values are per cent of control
endpoint: residual activity
Record the result as number plus unit.

Consider the worked cases shown below.
{"molecule": "CN(C)c1cc2cc(n1)CCCn1cc(c3ccccc31)C1=C(C(=O)NC1=O)c1cn(c3ccccc13)CCC2", "endpoint": "residual activity", "reading": "104%"}
{"molecule": "O=C1NC(=O)C2=C1c1cn(c3ccccc13)CCCc1ccc(c(N3CCCC3)n1)CCCn1cc2c2ccccc21", "endpoint": "residual activity", "reading": "100%"}
{"molecule": "CN(C)c1nc2ccc1CCCn1cc(c3ccccc31)C1=C(C(=O)NC1=O)c1cn(c3ccccc13)CC2", "endpoint": "residual activity", "reading": "115%"}

// moving on: another record for residual activity
Endpoint output: residual activity of `O=C1NC(=O)C2=C1c1cn(c3ccccc13)CCCc1cc(nc(N3CCCC3)c1)CCCn1cc2c2ccccc21` . Value?
107%

###

# target-of-assay: UniProt P00533
# Sequence (P00533 whole entry): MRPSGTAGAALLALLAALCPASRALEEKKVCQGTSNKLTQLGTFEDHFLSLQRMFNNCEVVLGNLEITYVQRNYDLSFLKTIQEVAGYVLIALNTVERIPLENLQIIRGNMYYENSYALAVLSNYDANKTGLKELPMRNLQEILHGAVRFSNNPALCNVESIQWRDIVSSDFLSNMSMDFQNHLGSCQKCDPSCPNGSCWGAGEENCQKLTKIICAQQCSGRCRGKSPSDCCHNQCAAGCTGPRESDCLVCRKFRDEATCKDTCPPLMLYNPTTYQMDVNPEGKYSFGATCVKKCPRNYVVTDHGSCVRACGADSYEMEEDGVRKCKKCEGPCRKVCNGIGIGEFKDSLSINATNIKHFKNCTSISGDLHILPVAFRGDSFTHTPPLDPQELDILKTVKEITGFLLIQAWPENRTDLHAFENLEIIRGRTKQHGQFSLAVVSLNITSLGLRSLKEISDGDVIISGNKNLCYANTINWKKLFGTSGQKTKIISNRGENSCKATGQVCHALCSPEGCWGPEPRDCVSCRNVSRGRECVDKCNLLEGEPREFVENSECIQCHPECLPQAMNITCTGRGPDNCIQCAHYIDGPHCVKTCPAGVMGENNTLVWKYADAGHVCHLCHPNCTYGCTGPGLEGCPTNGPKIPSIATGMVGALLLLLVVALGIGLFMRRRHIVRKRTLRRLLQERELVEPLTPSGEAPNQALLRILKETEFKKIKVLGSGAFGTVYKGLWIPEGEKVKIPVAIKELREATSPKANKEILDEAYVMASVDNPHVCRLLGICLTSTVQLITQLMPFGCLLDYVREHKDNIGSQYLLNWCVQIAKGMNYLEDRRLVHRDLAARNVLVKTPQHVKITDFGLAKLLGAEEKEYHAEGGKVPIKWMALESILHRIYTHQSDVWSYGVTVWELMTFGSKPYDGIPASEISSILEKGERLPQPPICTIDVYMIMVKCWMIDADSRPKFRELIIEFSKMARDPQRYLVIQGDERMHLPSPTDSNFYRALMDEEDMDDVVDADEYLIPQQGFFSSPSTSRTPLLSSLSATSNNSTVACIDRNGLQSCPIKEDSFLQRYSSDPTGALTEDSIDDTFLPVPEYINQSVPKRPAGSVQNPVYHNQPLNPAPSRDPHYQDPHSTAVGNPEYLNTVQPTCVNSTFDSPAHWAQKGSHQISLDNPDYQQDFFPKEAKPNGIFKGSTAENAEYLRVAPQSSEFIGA
# test: Inhibition of human EGFR at 1 uM relative to control; values are per cent of control
endpoint: residual activity (%)
Expressed in %, but write only the number.

{"molecule": "O=C1NC(=O)C2=C1c1cn(c3ccccc13)CCCc1ccc(c(N3CCCC3)n1)CCCn1cc2c2ccccc21", "target-of-assay": "UniProt P00533", "residual activity / %": 104}

Endpoint output: residual activity of `CN(C)c1cc2cc(n1)CCCn1cc(c3ccccc31)C1=C(C(=O)NC1=O)c1cn(c3ccccc13)CCC2` . Value?
96

One more molecule: `O=C1NC(=O)C2=C1c1cn(c3ccccc13)CCCc1cc(nc(N3CCCC3)c1)CCCn1cc2c2ccccc21`
108

One more molecule: `CN(C)c1nc2ccc1CCCn1cc(c3ccccc31)C1=C(C(=O)NC1=O)c1cn(c3ccccc13)CC2`
94

###

# residual activity values compiled below
# target-of-assay: Ephrin type-B receptor 2 (Homo sapiens) (UniProt P29323)
# Sequence (P29323 whole entry): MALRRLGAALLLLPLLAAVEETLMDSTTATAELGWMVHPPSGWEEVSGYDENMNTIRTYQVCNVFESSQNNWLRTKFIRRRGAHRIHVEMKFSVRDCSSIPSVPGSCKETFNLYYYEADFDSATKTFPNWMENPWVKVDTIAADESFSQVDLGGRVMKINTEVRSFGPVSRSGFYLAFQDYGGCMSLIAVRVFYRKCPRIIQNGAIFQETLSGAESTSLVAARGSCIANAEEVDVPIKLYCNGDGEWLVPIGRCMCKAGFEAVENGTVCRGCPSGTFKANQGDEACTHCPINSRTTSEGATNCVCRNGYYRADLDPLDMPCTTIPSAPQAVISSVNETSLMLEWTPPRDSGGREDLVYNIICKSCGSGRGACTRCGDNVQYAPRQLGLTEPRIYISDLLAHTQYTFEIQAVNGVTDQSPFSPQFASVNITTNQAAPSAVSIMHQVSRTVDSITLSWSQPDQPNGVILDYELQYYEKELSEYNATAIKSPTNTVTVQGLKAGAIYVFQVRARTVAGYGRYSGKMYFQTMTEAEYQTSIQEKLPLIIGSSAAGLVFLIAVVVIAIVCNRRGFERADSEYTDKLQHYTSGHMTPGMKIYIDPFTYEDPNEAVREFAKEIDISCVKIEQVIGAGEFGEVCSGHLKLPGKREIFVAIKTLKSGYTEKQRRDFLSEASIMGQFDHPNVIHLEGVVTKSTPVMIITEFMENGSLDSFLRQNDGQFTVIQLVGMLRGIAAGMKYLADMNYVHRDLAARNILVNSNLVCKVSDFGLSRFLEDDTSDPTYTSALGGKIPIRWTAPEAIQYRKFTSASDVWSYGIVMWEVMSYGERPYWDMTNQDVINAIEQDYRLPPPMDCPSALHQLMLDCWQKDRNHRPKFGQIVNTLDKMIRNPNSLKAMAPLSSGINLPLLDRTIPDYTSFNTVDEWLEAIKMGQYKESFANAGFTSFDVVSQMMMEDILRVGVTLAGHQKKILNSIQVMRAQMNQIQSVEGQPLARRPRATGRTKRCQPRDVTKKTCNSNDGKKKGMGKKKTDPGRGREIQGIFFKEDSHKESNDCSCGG
# test: Inhibition of human EphB2 at 1 uM relative to control; values are per cent of control
Record the result as number plus unit.

Consider the worked cases shown below.
{"molecule": "CN(C)c1cc2cc(n1)CCCn1cc(c3ccccc31)C1=C(C(=O)NC1=O)c1cn(c3ccccc13)CCC2", "residual activity": "114%"}
{"molecule": "CN(C)c1nc2ccc1CCCn1cc(c3ccccc31)C1=C(C(=O)NC1=O)c1cn(c3ccccc13)CC2", "residual activity": "125%"}
{"molecule": "O=C1NC(=O)C2=C1c1cn(c3ccccc13)CCCc1cc(nc(N3CCCC3)c1)CCCn1cc2c2ccccc21", "residual activity": "110%"}

// moving on: another record for residual activity
# value lookup — system Ephrin type-B receptor 2 (Homo sapiens) (UniProt P29323), readout residual activity, item `O=C1NC(=O)C2=C1c1cn(c3ccccc13)CCCc1ccc(c(N3CCCC3)n1)CCCn1cc2c2ccccc21`
114%
